All values here come from ChEMBL document CHEMBL3879901.

Molecular target: PI3K p110 beta/p85 alpha (Homo sapiens, UniProt P42338)
Sequence (P27986 whole entry): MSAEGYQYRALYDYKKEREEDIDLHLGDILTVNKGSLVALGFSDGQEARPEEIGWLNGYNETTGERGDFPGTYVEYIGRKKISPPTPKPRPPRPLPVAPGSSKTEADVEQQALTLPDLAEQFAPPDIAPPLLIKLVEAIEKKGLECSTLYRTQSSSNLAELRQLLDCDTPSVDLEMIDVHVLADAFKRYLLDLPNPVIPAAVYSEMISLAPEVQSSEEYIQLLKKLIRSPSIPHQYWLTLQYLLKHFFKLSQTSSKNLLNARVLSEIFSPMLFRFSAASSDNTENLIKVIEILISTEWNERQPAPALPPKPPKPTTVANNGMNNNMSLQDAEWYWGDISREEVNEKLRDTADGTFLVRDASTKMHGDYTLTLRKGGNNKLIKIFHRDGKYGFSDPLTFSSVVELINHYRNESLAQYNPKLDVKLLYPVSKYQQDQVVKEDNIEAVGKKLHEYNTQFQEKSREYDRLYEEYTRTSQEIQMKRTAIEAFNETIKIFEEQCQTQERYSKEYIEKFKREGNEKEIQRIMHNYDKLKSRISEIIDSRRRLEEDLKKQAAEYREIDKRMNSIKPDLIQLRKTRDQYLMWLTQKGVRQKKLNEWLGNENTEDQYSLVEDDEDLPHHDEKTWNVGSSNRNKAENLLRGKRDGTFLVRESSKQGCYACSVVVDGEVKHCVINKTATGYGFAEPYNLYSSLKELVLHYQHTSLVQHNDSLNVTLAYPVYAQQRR
Sequence (P42338 whole entry): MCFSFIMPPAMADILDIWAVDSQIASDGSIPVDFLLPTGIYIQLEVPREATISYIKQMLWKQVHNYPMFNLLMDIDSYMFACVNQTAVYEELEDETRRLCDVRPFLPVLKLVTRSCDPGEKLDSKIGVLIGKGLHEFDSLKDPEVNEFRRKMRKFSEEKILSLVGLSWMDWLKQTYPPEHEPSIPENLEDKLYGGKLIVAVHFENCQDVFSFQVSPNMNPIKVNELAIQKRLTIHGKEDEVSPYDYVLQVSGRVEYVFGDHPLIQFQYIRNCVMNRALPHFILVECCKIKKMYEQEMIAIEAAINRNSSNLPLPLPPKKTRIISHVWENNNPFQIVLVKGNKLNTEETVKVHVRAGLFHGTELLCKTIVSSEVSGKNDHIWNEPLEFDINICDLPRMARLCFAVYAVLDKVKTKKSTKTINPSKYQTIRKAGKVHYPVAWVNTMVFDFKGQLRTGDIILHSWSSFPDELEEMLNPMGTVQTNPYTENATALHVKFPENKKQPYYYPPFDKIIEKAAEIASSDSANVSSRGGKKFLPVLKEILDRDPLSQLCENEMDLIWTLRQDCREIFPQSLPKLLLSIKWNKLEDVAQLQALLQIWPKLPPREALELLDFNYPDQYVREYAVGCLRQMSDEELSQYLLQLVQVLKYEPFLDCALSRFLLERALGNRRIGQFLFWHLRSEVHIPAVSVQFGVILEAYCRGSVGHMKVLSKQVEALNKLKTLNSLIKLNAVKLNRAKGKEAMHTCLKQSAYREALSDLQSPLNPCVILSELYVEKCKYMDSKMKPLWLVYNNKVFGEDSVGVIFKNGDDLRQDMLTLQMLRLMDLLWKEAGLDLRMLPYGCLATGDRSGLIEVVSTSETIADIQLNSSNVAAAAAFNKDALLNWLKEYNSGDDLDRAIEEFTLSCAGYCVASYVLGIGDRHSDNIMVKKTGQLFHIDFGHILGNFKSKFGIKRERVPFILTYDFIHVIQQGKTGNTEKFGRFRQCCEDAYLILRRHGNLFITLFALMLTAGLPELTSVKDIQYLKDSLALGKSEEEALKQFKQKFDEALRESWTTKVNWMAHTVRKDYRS
Assay: Inhibition of N-terminal His6-tagged recombinant full-length human p110beta/untagged recombinant full length p85alpha expressed in baculovirus infected Sf21 cells using phosphatidylinositol as substrate in presence of gamma-32P-ATP after 5 mins by thin layer chromatographic method
pIC50: −log10 of the molar value.
Documented pIC50 across a set of compounds

# smiles-text, pIC50
data = [
    ("Cc1ccccc1-n1c(Cn2nc(-c3cccc(O)c3)c3c(N)ncnc32)cc2cccc(F)c2c1=O", "< 5.00"),
    ("Cc1cccc2cc(Cn3nc(C#C[C@@H](C)O)c4c(N)ncnc43)n(C(C)C)c(=O)c12", "> 5.00"),
    ("Cc1cccc2cc(Cn3nc(-c4cc(O)cc(F)c4)c4c(N)ncnc43)n(C(C)C)c(=O)c12", "> 6.00"),
    ("Cc1cccc2cc(Cn3nc(-c4cc(O)cc(F)c4)c4c(N)ncnc43)n(-c3ccccc3F)c(=O)c12", "> 5.00"),
]
